Target: 5-HT2C receptor (Homo sapiens, UniProt P28335)
Construct: host or cells: HEK293
Sequence (P28335 33-458): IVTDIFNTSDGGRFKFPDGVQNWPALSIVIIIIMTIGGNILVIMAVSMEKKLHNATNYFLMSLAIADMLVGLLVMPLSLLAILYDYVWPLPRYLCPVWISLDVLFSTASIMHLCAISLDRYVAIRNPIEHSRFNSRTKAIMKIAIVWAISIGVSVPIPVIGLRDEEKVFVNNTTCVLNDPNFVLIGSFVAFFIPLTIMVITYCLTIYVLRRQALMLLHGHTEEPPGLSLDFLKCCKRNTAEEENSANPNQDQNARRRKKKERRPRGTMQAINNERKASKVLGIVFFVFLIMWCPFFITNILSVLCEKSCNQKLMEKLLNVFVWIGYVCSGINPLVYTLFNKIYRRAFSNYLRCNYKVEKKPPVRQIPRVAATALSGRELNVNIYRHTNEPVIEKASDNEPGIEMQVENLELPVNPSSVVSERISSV
Assay: cell-based
Details: agonist activity, Ca2+ flux, HEK293 cells; read-out: 5-HT2C EC50
Entries and their EC50

# compound, unit, EC50
records = [
    ("Cc1cc(O)c2c(CCN(C)C)c[nH]c2c1 [Example P-12]", "nM", 144),
    ("COc1c(C)ccc2[nH]cc(CCN(C)C(C)C)c12 [Example P-60]", "nM", 198),
    ("CN(C)CCc1c[nH]c2c(F)c(F)ccc12 [Example P-159]", "nM", 36.5),
    ("COc1c(F)ccc2[nH]cc(CCN(C)C(C)C)c12 [Example P-93]", "nM", 45.2),
    ("CCN(C)CCc1c[nH]c2c(F)ccc(OC)c12 [Example P-102]", "nM", 155),
    ("CCCN(CCC)CCc1c[nH]c2c(C)ccc(O)c12 [Example P-89]", "nM", 889),
    ("COc1cc(F)cc2[nH]cc(CCN(C)C)c12 [Example P-14]", "nM", 2.6),
    ("COc1ccc(C)c2[nH]cc(CCN(C)C)c12 [Example P-13]", "nM", 56),
]

###

Quick list: pEC50 per entry.
Biological target: 5-HT2B receptor (Homo sapiens, UniProt P41595)
Construct: host or cells: CHO-K1
Sequence (P41595 whole entry): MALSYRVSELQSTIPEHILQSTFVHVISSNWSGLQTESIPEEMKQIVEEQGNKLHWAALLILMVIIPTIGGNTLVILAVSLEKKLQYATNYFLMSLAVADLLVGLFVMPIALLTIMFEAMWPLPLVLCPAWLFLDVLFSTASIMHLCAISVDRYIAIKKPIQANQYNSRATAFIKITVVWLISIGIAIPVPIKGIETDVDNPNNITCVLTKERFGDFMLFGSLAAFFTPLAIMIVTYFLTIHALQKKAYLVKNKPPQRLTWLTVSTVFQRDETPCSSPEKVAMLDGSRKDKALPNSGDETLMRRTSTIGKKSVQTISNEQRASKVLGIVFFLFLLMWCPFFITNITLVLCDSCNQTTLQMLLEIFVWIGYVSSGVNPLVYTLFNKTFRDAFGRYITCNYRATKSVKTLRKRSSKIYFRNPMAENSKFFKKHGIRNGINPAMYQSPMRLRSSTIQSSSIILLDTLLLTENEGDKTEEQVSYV
Assay: cell-based
Conditions: agonist activity, Ca2+ flux, CHO-K1 cells; read-out: 5-HT2B EC50
pEC50: −log10 of the molar value.
readout-label: pEC50

# input-smiles, readout-label, relation-sign, recorded-measurement
records = [
    ("CCN(CC)CCc1c[nH]c2ccc(C)c(O)c12", "pEC50", "≤", 5.00),
    ("CN(C)CCc1c[nH]c2c(F)c(F)ccc12", "pEC50", "<", 5.00),
    ("COc1c(F)ccc2[nH]cc(CCN(C(C)C)C(C)C)c12", "pEC50", "=", 7.67),
    ("CCN(CC)CCc1c[nH]c2ccc(F)c(OC)c12", "pEC50", "=", 7.03),
    ("COc1ccc(C)c2[nH]cc(CCN(C)C(C)C)c12", "pEC50", "<", 5.00),
]

###

Test: In vivo pharmacokinetics, plasma and brain exposure after IP dosing
Parameters: species or system male C57BL/6 mice
Conditions: mouse, plasma; male C57BL/6 mice, IP 10 mg/kg; read-out: Plasma AUC0-inf

# input-smiles, AUC(0-inf) [µM·h]
rows = [
    ("CCN(C)CCc1c[nH]c2c(C)cc(OC)cc12", 5.39),
    ("CCN(C)CCc1c[nH]c2ccc(OC)c(C)c12", 1.72),
    ("CCN(C)CCc1c[nH]c2cc(C)c(OC)cc12", 2.36),
]

###

Assay: In vivo pharmacokinetics, plasma and brain exposure after IP dosing
Set-up: species or system male C57BL/6 mice
Conditions: male, C57BL/6, mouse, brain, ip, 10 mg/kg, 4 h, n = 3, read-out: Brain Parenchyma Concentration, Mean ± SD
Listing of recorded concentration at 4 h by entry.
readout-label: concentration at 4 h (nM)

# input-smiles, readout-label, recorded-measurement
records = [
    ("CCN(C)CCc1c[nH]c2cc(C)c(OC)cc12", "concentration at 4 h", 370),
    ("CCN(C)CCc1c[nH]c2c(C)cc(OC)cc12", "concentration at 4 h", 538),
    ("CCN(C)CCc1c[nH]c2ccc(OC)c(C)c12", "concentration at 4 h", 129),
]

###

Target: 5-HT2C receptor (Homo sapiens, UniProt P28335)
Construct: host or cells: HEK293
Assay: cell-based
Conditions: agonist activity, Ca2+ flux, HEK293 cells
readout-label: Emax (%)

# input-smiles, readout-label, unit, recorded-measurement
measured = [
    ("Cc1nc2c(ccc3[nH]cc(CCN(C)C(C)C)c32)o1", "Emax", "%", 72.6),
    ("CCCN(CCC)CCc1c[nH]c2c(C)ccc(O)c12", "Emax", "%", 54.7),
    ("CCN(CCc1c[nH]c2cc(C)c(OC)cc12)C(C)C", "Emax", "%", 80.8),
    ("Cc1cc(O)c2c(CCN(C)C)c[nH]c2c1", "Emax", "%", 69.3),
    ("CCN(C)CCc1c[nH]c2ccc3ocnc3c12", "Emax", "%", 70.5),
]

###

Target: 5-HT2C receptor (Homo sapiens, UniProt P28335)
Construct: host or cells: HEK293
Sequence (P28335 33-458): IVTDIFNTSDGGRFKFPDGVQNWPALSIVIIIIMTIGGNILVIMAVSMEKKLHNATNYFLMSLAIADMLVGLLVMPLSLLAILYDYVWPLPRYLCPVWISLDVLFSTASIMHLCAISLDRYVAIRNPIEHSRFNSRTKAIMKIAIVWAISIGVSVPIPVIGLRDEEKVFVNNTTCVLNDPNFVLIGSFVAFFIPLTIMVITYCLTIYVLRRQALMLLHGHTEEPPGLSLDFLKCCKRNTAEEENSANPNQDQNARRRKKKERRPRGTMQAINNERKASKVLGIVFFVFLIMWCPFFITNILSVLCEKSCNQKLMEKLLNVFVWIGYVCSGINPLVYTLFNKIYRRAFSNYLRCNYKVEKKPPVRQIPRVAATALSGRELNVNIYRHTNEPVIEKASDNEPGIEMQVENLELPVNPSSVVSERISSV
Assay: cell-based
Conditions: agonist activity, Ca2+ flux, HEK293 cells
Binary classification by Emax, with 70% as an inclusive lower bound for fulfilled; all other cases are not fulfilled.

# input-smiles, assayed-system, class
rows = [
    ("COc1cc(F)cc2[nH]cc(CCN(C(C)C)C(C)C)c12", "5-HT2C receptor (Homo sapiens, UniProt P28335)", "fulfilled"),
    ("CN(C)CCc1c[nH]c2c(F)cc(F)cc12", "5-HT2C receptor (Homo sapiens, UniProt P28335)", "fulfilled"),
    ("CCN(C)CCc1c[nH]c2c(C)ccc(OC)c12", "5-HT2C receptor (Homo sapiens, UniProt P28335)", "not fulfilled"),
    ("CN(C)CCc1c[nH]c2ccc3oc(=O)[nH]c3c12", "5-HT2C receptor (Homo sapiens, UniProt P28335)", "not fulfilled"),
    ("CCCN(C)CCc1c[nH]c2c(C)cc(OC)cc12", "5-HT2C receptor (Homo sapiens, UniProt P28335)", "not fulfilled"),
    ("CCN(CC)CCc1c[nH]c2ccc3ocnc3c12", "5-HT2C receptor (Homo sapiens, UniProt P28335)", "fulfilled"),
    ("Cc1nc2c(ccc3[nH]cc(CCN(C)C)c32)o1", "5-HT2C receptor (Homo sapiens, UniProt P28335)", "fulfilled"),
    ("COc1cc2c(CCN(C(C)C)C(C)C)c[nH]c2cc1C", "5-HT2C receptor (Homo sapiens, UniProt P28335)", "fulfilled"),
    ("CC(C)N(CCc1c[nH]c2ccc3ocnc3c12)C(C)C", "5-HT2C receptor (Homo sapiens, UniProt P28335)", "fulfilled"),
    ("CN(C)CCc1c[nH]c2cc(F)c(F)cc12", "5-HT2C receptor (Homo sapiens, UniProt P28335)", "fulfilled"),
    ("CN(C)CCc1c[nH]c2ccc(F)c(F)c12", "5-HT2C receptor (Homo sapiens, UniProt P28335)", "fulfilled"),
    ("CCCN(CCC)CCc1c[nH]c2ccc(C)c(O)c12", "5-HT2C receptor (Homo sapiens, UniProt P28335)", "fulfilled"),
    ("CCN(CCc1c[nH]c2ccc(C)c(OC)c12)C(C)C", "5-HT2C receptor (Homo sapiens, UniProt P28335)", "not fulfilled"),
    ("Cc1nc2c(ccc3[nH]cc(CCN(C(C)C)C(C)C)c32)o1", "5-HT2C receptor (Homo sapiens, UniProt P28335)", "fulfilled"),
    ("COc1ccc2[nH]cc(CCN(C)C(C)C)c2c1C", "5-HT2C receptor (Homo sapiens, UniProt P28335)", "not fulfilled"),
    ("CCN(CC)CCc1c[nH]c2ccc(F)c(OC)c12", "5-HT2C receptor (Homo sapiens, UniProt P28335)", "not fulfilled"),
    ("CCCN(C)CCc1c[nH]c2ccc(C)c(O)c12", "5-HT2C receptor (Homo sapiens, UniProt P28335)", "not fulfilled"),
    ("COc1c(C)ccc2[nH]cc(CCN(C)C)c12", "5-HT2C receptor (Homo sapiens, UniProt P28335)", "fulfilled"),
    ("CCN(C)CCc1c[nH]c2cc(F)cc(OC)c12", "5-HT2C receptor (Homo sapiens, UniProt P28335)", "fulfilled"),
    ("CCCN(C)CCc1c[nH]c2c(C)ccc(O)c12", "5-HT2C receptor (Homo sapiens, UniProt P28335)", "not fulfilled"),
]

Where do these numbers come from? They come from patent US20250101038A1.
